# Assay Remarks: Apparent permeability across basolateral to apical side in human Caco2 cells
# Format: ADME, cell-based
# Recorded Conditions: Caco-2
Quantity Kind: Papp B→A (×10⁻⁶ cm/s)

# Query Smiles, Quantity Kind, Observed Value
rows = [
    ("CN(CC(=O)Nc1nc2ccc(OC(F)(F)F)cc2s1)C(=O)CNC(C)(C)C", "Papp B→A", 2.41),
]

###

# Assay Remarks: Prodrug conversion in pH 7.4 buffer assessed as riluzole formation by measuring compound half life
# Format: physicochemical
Quantity Kind: t1/2

# Query Smiles, Observed Value
data = [
    ("CC(C)(C)NCC(=O)N1CCC[C@@H]1C(=O)Nc1nc2ccc(OC(F)(F)F)cc2s1", "> 24 h"),
    ("CN(CC(=O)Nc1nc2ccc(OC(F)(F)F)cc2s1)C(=O)CN", "< 0.1 h"),
    ("CCNCC(=O)N(C)CC(=O)Nc1nc2ccc(OC(F)(F)F)cc2s1", "< 0.25 h"),
    ("NCC(=O)N1CCC[C@@H]1C(=O)Nc1nc2ccc(OC(F)(F)F)cc2s1", "0.2 h"),
    ("CC(C)NCC(=O)N(C)CC(=O)Nc1nc2ccc(OC(F)(F)F)cc2s1", "> 24 h"),
    ("CN(CC(=O)Nc1nc2ccc(OC(F)(F)F)cc2s1)C(=O)CNC(C)(C)C", "> 24 h"),
    ("CNCC(=O)N(C)CC(=O)Nc1nc2ccc(OC(F)(F)F)cc2s1", "< 0.1 h"),
    ("CC(C)(C)NCC(=O)NC(C)(C)C(=O)Nc1nc2ccc(OC(F)(F)F)cc2s1", "> 2 h"),
]

###

# Target System: UniProt:P08684
# Sequence (P08684 whole entry): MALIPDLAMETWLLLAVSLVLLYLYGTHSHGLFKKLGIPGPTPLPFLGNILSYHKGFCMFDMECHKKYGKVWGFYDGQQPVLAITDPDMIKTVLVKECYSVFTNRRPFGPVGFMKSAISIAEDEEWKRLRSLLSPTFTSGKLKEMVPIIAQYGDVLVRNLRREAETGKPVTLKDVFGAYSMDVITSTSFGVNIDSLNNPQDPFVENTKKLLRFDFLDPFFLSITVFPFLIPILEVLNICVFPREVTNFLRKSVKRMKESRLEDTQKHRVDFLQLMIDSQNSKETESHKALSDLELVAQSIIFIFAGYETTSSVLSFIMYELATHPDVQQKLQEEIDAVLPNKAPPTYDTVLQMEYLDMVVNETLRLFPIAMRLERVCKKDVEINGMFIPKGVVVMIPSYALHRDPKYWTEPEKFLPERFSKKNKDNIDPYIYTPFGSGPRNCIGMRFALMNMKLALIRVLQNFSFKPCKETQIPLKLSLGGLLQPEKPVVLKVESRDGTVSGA
# Assay Remarks: Inhibition of CYP3A4 (unknown origin) at 10 uM using midazolam as substrate relative to control
# Type: ADME
# Recorded Conditions: probe midazolam
Quantity Kind: inhibition at 10 µM

# Query Smiles, Quantity Kind, Observed Value
measured = [
    ("CN(CC(=O)Nc1nc2ccc(OC(F)(F)F)cc2s1)C(=O)CNC(C)(C)C", "inhibition at 10 µM", "< 10%"),
]

###

# Assay Remarks: Prodrug conversion in rat serum assessed as riluzole formation by measuring compound half life
# Type: ADME, cell-free

# Query Smiles, t1/2
measured = [
    ("CC(C)(NC(=O)CN)C(=O)Nc1nc2ccc(OC(F)(F)F)cc2s1", "2 h"),
    ("CC(C)(C)NCC(=O)NC(C)(C)C(=O)Nc1nc2ccc(OC(F)(F)F)cc2s1", "> 2 h"),
    ("CCNCC(=O)N(C)CC(=O)Nc1nc2ccc(OC(F)(F)F)cc2s1", "< 0.25 h"),
    ("CN(CC(=O)Nc1nc2ccc(OC(F)(F)F)cc2s1)C(=O)CN", "< 0.1 h"),
    ("CC(C)(C)NCC(=O)N1CCC[C@@H]1C(=O)Nc1nc2ccc(OC(F)(F)F)cc2s1", "> 2 h"),
    ("CC(C)NCC(=O)N(C)CC(=O)Nc1nc2ccc(OC(F)(F)F)cc2s1", "> 2 h"),
    ("NCC(=O)N1CCC[C@@H]1C(=O)Nc1nc2ccc(OC(F)(F)F)cc2s1", "0.25 h"),
    ("CN(CC(=O)Nc1nc2ccc(OC(F)(F)F)cc2s1)C(=O)CNC(C)(C)C", "> 2 h"),
    ("CNCC(=O)N(C)CC(=O)Nc1nc2ccc(OC(F)(F)F)cc2s1", "< 0.1 h"),
]

###

# Assay Remarks: Prodrug conversion in simulated intestinal fluid assessed as riluzole formation by measuring compound half life at 0.01 mg/ml by LC/MS analysis
# Format: ADME
# Recorded Conditions: simulated gi fluid

# Query Smiles, t1/2
rows = [
    ("CN(CC(=O)Nc1nc2ccc(OC(F)(F)F)cc2s1)C(=O)CNC(C)(C)C", "> 4 h"),
    ("CNCC(=O)N(C)CC(=O)Nc1nc2ccc(OC(F)(F)F)cc2s1", "< 1 h"),
    ("CC(C)(NC(=O)CN)C(=O)Nc1nc2ccc(OC(F)(F)F)cc2s1", "< 1 h"),
    ("CCNCC(=O)N(C)CC(=O)Nc1nc2ccc(OC(F)(F)F)cc2s1", "< 1 h"),
    ("CC(C)NCC(=O)N(C)CC(=O)Nc1nc2ccc(OC(F)(F)F)cc2s1", "> 4 h"),
    ("NCC(=O)N1CCC[C@@H]1C(=O)Nc1nc2ccc(OC(F)(F)F)cc2s1", "< 1 h"),
    ("CC(C)(C)NCC(=O)NC(C)(C)C(=O)Nc1nc2ccc(OC(F)(F)F)cc2s1", "> 4 h"),
]

###

# Target System: UniProt:P05177
# Sequence (P05177 whole entry): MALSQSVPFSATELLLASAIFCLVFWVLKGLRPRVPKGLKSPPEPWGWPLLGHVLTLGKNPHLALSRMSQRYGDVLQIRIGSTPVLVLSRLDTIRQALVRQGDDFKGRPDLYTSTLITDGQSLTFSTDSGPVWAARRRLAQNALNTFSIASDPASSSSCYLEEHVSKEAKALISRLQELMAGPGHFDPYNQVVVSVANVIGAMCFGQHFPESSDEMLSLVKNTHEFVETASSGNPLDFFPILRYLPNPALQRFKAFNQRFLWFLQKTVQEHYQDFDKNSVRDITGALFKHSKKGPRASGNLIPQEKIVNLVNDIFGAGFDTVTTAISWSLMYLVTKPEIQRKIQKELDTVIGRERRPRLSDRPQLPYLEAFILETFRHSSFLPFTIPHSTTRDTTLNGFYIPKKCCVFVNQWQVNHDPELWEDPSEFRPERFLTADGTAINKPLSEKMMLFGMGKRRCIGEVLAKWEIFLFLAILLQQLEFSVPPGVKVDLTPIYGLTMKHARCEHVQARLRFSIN
# Assay Remarks: Inhibition of CYP1A2 (unknown origin) at 10 uM relative to control
# Type: ADME
Quantity Kind: inhibition at 10 µM

# Query Smiles, Quantity Kind, Observed Value
measured = [
    ("CN(CC(=O)Nc1nc2ccc(OC(F)(F)F)cc2s1)C(=O)CNC(C)(C)C", "inhibition at 10 µM", "< 10%"),
]
